Here, each record is paired with measured melting point data.

Completed entries (count: 4):
{"compound": "CCOc1cc(C#N)ccc1C(=O)Nc1cc(Cl)c(Cl)cc1N", "readout": "melting point", "reading": "195 to 198 °C"}
{"compound": "O=C(O)c1cc(-c2ncc(C(F)(F)F)cc2Cl)ccc1Cl", "readout": "melting point", "reading": "149 to 151 °C"}
{"compound": "FC(F)(F)c1cccc(-c2ccn3nccc3n2)c1", "readout": "melting point", "reading": "117 to 118 °C"}
{"compound": "CCCCc1ncc(/C=C(\\Cc2ccc(C)s2)c2nnn[nH]2)n1Cc1ccccc1Cl", "readout": "melting point", "reading": "151 to 153 °C"}

From here, focus on the item given below.
Can you look up the measured melting point of CCOC(=O)N=C1NCC(Oc2ccc(C(Cc3cc4cc(C#N)ccc4s3)C(=O)OCC)cc2)CN1 (stereo not given) for me? 179 to 182 °C

====

Here, each record is paired with measured melting point data.

Completed entries (count: 5):
{"molecule": "CC(=O)N1C=C(c2ccccc2)NC(=O)C1C(C)C (racemic)", "reading": "182 to 185 °C"}
{"molecule": "C=CCNc1nc(C2C(=O)Nc3ccc(Br)cc32)c2cn(C)nc2n1 (stereo unspecified)", "reading": "336 to 340 °C"}
{"molecule": "CNC(=NCCCc1nc2cc(C3=NNC(=O)CC3C)ccc2[nH]1)NS(=O)(=O)c1ccccc1 (stereo unspecified)", "reading": "258 to 260 °C"}
{"molecule": "CCNC(=O)Nc1cc(F)cc2c1OCCC21SC(=O)NC1=O (stereo unspecified)", "reading": "197 to 199 °C"}
{"molecule": "CC(C)Cc1nn(C)c(=O)c2c(S(=O)(=O)CCCO)c(Cc3ccccc3)sc12", "reading": "105 to 107 °C"}

From here, focus on the item given below.
Can you look up the measured melting point of CC(=O)c1sccc1S(=O)(=O)N(C)c1cccc2cc(-c3nccs3)[nH]c12 for me? 156 °C

====

readout: melting point

Completed entries (count: 3):
{"compound": "CC12CCC(C1)C1(C)Oc3ccc(C(=O)COc4ccc(C(=O)O)c(O)c4)cc3C21C (stereo not given)", "melting point": "186 to 188 °C"}
{"compound": "COc1ccc(C(N)=Nc2ccc(C(=O)O)cc2)cc1C(C)(C)C", "melting point": "170 to 172 °C"}
{"compound": "CS(=O)(=O)c1ccc(-c2oc3ccccc3c(=O)c2-c2ccc(Cl)cc2)cc1", "melting point": "145 to 147 °C"}

Can you look up the measured melting point of CCOC(=O)COc1c(OC)cc(Cl)c2c1CN1CCc3cc(OC)c(OCc4ccccc4)cc3C1C2 (stereo not given) for me? 134 °C

Can you look up the measured melting point of CCCc1cn(C)c2c(=O)[nH]c(-c3cc(S(=O)(=O)N4CCN(CCOC(C)=O)CC4)ccc3OCC)nc12 for me? 192 °C

Can you look up the measured melting point of CNC1=Nc2ccc(Cl)cc2C(c2ccc[nH]2)=NC1 for me? 251 °C

Can you look up the measured melting point of CC(C)(C=C(Br)Br)C(=O)Nc1ccc(Cl)cc1 for me? 104 °C

Can you look up the measured melting point of CNC(=O)C1=CC(C)(C)Oc2ccc(C(F)(F)F)cc21 for me? 146 to 150 °C

====

Here, each record is paired with measured melting point data.

{"molecule": "CCCCCCCN(Cc1ccc(CCC(C)C)cc1)C(=O)NC1(OC)C=C(C)C=CN1 (stereo unspecified)", "readout": "melting point", "reading": "90 to 91 °C"}
{"molecule": "O=C1CCNc2c1cc(Cl)cc2[N+](=O)[O-]", "readout": "melting point", "reading": "132 to 135 °C"}
{"molecule": "CCOC(=O)C1=C(C)N2CCCC2=C(C(C)=O)C1c1ccccc1C#N (stereo unspecified)", "readout": "melting point", "reading": "167 °C"}

Can you look up the measured melting point of CCc1onc(-c2ccccc2)c1-c1ccccc1 for me? 85 to 87 °C

Can you look up the measured melting point of CC(C)(C)c1nc(-c2ccc(F)cc2)c(-c2ccc(S(C)(=O)=O)cc2)o1 for me? 130 to 131 °C

Can you look up the measured melting point of COc1ccccc1-c1ccc2cnc(Nc3ccc(OCCN4CCOCC4)cc3)nn12 for me? 133 to 135 °C

====

Here, each record is paired with measured melting point data.

Can you look up the measured melting point of COc1cc(OC)c2c(=O)[nH]c(-c3cccc(N4CCN(CCS(C)(=O)=O)CC4)n3)nc2c1 for me? 243 to 244 °C

====

Here, each record is paired with measured melting point data.

{"smiles text": "Nc1nc2ccccc2c2c1ncn2CCCCNC(=O)c1ccc(Cn2c(N3CCCC3)nc3ccccc32)cc1", "melting point": "150 to 153 °C"}
{"smiles text": "CCOC(=O)c1cc(NCc2ccccc2)c(Nc2cccc(OC)c2)c(S(N)(=O)=O)c1", "melting point": "149 to 152 °C"}

From here, focus on the item given below.
Can you look up the measured melting point of CCCc1nn(-c2ccc(C(F)(F)F)cn2)cc1CCCOc1cc(CCC(=O)O)n(C2CCCCC2)n1 for me? 164 to 165 °C

====

Here, each record is paired with measured melting point data.

Completed entries (count: 8):
{"compound": "CC1(C)Cc2cccc(Oc3c(Cl)cc([N+](=O)[O-])cc3Cl)c2O1", "melting point": "105 to 110 °C"}
{"compound": "Cc1nn(C)c2ccc(C(=O)O)c(C3=NC(C)(C(C)C)C(=O)N3)c12 (configuration not stated)", "melting point": "156 to 166 °C"}
{"compound": "CCOC(=O)Cc1c(C(=O)OCC)[nH]c2ccccc12", "melting point": "75 to 78 °C"}
{"compound": "C=C(C)C(=O)Oc1cccc(O)c1O", "melting point": "100 to 102 °C"}
{"compound": "CC(C)(C)OC(=O)NOCC(=O)NNC(=O)c1cc(S(=O)(=O)O)cc(O)c1O", "melting point": "148 to 150 °C"}
{"compound": "Cc1c(N2CCC3(CC3N)C2)c(F)c(N)c2c(=O)c(C(=O)O)cn([C@@H]3C[C@@H]3F)c12 (some centres not stated)", "melting point": "118 to 120 °C"}
{"compound": "CC(C)(C)OC(=O)N1CCC(C2=C(C#N)C(c3cccc4nonc34)c3c[nH]nc3N2)CC1 (configuration not stated)", "melting point": "226 °C"}
{"compound": "O=C(CCCCCl)Nc1nc2ccccc2[nH]1", "melting point": "161 to 163 °C"}

Can you look up the measured melting point of CC(=O)N(CCCn1cncn1)C1=Nc2cccc3cccc1c23 for me? 128 to 129 °C

====

Here, each record is paired with measured melting point data.

{"compound": "COCCOc1cc2ncc(C#N)c(Nc3cc(OC)c(OC)c(OC)c3)c2cc1OC", "melting point": "188 to 190 °C"}
{"compound": "CCCONC(=O)c1nc(-c2ccc(Cl)c(OC)c2F)cc(N)c1Cl", "melting point": "165 to 168 °C"}

From here, focus on the item given below.
Can you look up the measured melting point of CNC(Cc1ccccc1N)c1ccncc1 (stereo not drawn) for me? 69 to 71 °C

====

Here, each record is paired with measured melting point data.

Completed entries (count: 8):
{"compound": "COc1cc(C(=O)N(C(C)C)C(C)C)ccc1OCCCCCOc1ccc(C#N)cc1", "reading": "90 to 92 °C"}
{"compound": "C=CCNc1cc(OCC=C)c(C(=O)O)cc1Cl", "reading": "83.5 to 86 °C"}
{"compound": "O=S(c1ccc(C=Cc2nc(CCl)cs2)cc1)C(F)(F)F (stereo not given)", "reading": "98 to 99 °C"}
{"compound": "CSc1sc(C(=O)O)c2c1-c1sc(-c3ccccc3)cc1CC2", "reading": "215 to 217 °C"}
{"compound": "CC(=O)N[C@@H]1[C@@H](CC2CO2)CC(C(=O)O)=C[C@H]1OC(C)C (stereo not given in full)", "reading": "156 to 157 °C"}
{"compound": "CCCCNC(=O)C1CCNCC1", "reading": "75 to 79 °C"}
{"compound": "COCCN(C1CCS(=O)(=O)C1)S(=O)(=O)c1ccc(Nc2nccc(Nc3ccc(F)cc3)n2)cc1 (stereo not given)", "reading": "150 °C"}
{"compound": "Cc1ccc(S(=O)(=O)Nc2ccc(F)cc2)cc1", "reading": "78 to 79.5 °C"}

Can you look up the measured melting point of Cc1ccc(CC2CCN(CCOc3ccc4cc(O)ccc4c3)CC2)cc1 for me? 164 to 166 °C

Can you look up the measured melting point of Cc1nn(C)c(Cl)c1S(=O)(=O)Nc1ccc(Cl)cc1C(=O)Nc1ccc(S(=O)(=O)N2CCSCC2)cc1 for me? 215 to 216 °C

Can you look up the measured melting point of C[C@]1(COc2ccc(N3CCN(C(=O)OCc4ccc(Cl)cc4)CC3)cc2)Cn2cc([N+](=O)[O-])nc2O1 for me? 184 to 188 °C

Can you look up the measured melting point of CNS(=O)(=O)c1c(C)n(C)c2cc(F)ccc2c1=O for me? 184 °C

Can you look up the measured melting point of COc1ccc(C(N)=S)c(OC)c1 for me? 115 to 118 °C

Can you look up the measured melting point of NCC(O)c1ccc(C(F)(F)F)cc1 (stereo not given) for me? 138 to 140 °C

Can you look up the measured melting point of NC(=O)CCN1CCN(C2Cc3cc(Cl)ccc3Sc3cc(F)ccc32)CC1 (stereo not given) for me? 179 to 182 °C

Can you look up the measured melting point of CC(C)C[C@H](NC(=O)OC(C)(C)C)[C@H](O)CO for me? 58 to 59 °C

Can you look up the measured melting point of CCCCN(C(=O)CCc1ccc(OCCOC)cc1Oc1ncc(C(F)(F)F)cc1Cl)S(N)(=O)=O for me? 102 to 103 °C

Can you look up the measured melting point of CC(C)c1c(C(=O)c2cccnc2)c2ccccc2n1C for me? 114 °C

Can you look up the measured melting point of Clc1cc(-c2ccccc2)ncn1 for me? 95 to 98 °C

Can you look up the measured melting point of Cn1c(=O)c2c(Br)cccc2n2cnc(-c3noc(C4CC4)n3)c12 for me? 207 °C

Value source: a melting point compilation (Tetko et al.; mined from patent text by program, amines drawn as free bases though some values may be those of a salt)
